Reference source for all entries: the antibiotic and cytotoxicity screens of Wong et al. (2023)

tested on: S. aureus RN4220; experiment: growth inhibition call (relative growth <= 0.2); conditions: 50 µM
Among all 39,000 compounds or so, about 500 (1.3%) were called active. The list comes from a sample in which actives are over-represented; it also holds close analogues and randomly drawn compounds.

[
  {
    "molecule": "O=c1c(O)nnc2n1CCN2c1ccccc1",
    "growth inhibition call": "inactive"
  },
  {
    "molecule": "COC1(NC(=O)CSCC#N)C(=O)N2C(C(=O)[O-])=C(CSc3nnnn3C)CSC21.[Na+] (stereo not given)",
    "growth inhibition call": "active"
  },
  {
    "molecule": "CCNC(=O)C[C@H]1C=C[C@H](NC(=O)C2CC2)[C@H](CO)O1",
    "growth inhibition call": "inactive"
  },
  {
    "molecule": "CCC1OC(=O)C(C)C(=O)C(C)C(OC2OC(C)CC(N(C)C)C2O)C(C)(OC)CC(C)C(=O)C(C)C2N(CCCCn3cnc(-c4cccnc4)c3)C(=O)OC12C (stereo not given)",
    "growth inhibition call": "active"
  },
  {
    "molecule": "C[C@@H]1CN([C@H](C)CO)C(=O)c2cccc(NC(=O)Nc3cccc4ccccc34)c2O[C@@H]1CN(C)C(=O)Nc1cccc2ccccc12",
    "growth inhibition call": "inactive"
  },
  {
    "molecule": "COC1(NC(=O)C(C(=O)[O-])c2ccc(O)cc2)C(=O)N2C(C(=O)[O-])=C(CSc3nnnn3C)COC21.[Na+].[Na+] (stereo not given)",
    "growth inhibition call": "active"
  },
  {
    "molecule": "COC(=O)[C@H](Cc1ccc(-n2cc(C(=O)NO)nn2)cc1)N1C[C@](C)(OC)O[C@@H](Cc2ccccc2)[C@H]1/C=C/C1CC1",
    "growth inhibition call": "inactive"
  },
  {
    "molecule": "CC[C@H](C)[C@H]1O[C@]2(C=C[C@@H]1C)C[C@@H]1C[C@@H](C/C=C(\\C)[C@@H](O[C@H]3C[C@H](OC)[C@@H](O[C@H]4C[C@H](OC)[C@@H](NC(C)=O)[C@H](C)O4)[C@H](C)O3)[C@@H](C)/C=C/C=C3\\CO[C@@H]4[C@H](O)C(C)=C[C@@H](C(=O)O1)[C@]34O)O2",
    "growth inhibition call": "inactive"
  },
  {
    "molecule": "C[C@H]1CN([C@@H](C)CO)C(=O)CCCn2cc(nn2)CO[C@@H]1CN(C)C(=O)Nc1cccc(C(F)(F)F)c1",
    "growth inhibition call": "inactive"
  },
  {
    "molecule": "C[C@@H]1CCCCO[C@@H](CN(C)C(=O)Nc2ccc(C(F)(F)F)cc2)[C@H](C)CN([C@H](C)CO)C(=O)c2cc(N(C)C)ccc2O1",
    "growth inhibition call": "inactive"
  },
  {
    "molecule": "C[C@H]1CN([C@@H](C)CO)C(=O)c2cc(C#CC3(O)CCCC3)cnc2O[C@@H]1CN(C)S(C)(=O)=O",
    "growth inhibition call": "inactive"
  },
  {
    "molecule": "COc1ccc(S(=O)(=O)Nc2ccc3c(c2)C(=O)N([C@H](C)CO)C[C@H](C)[C@@H](CN(C)C(=O)CCC(F)(F)F)OCCCC[C@@H](C)O3)cc1",
    "growth inhibition call": "inactive"
  },
  {
    "molecule": "O=C(N[C@H]1C=C[C@H](CC(=O)N2CCOCC2)O[C@@H]1CO)c1ccccn1",
    "growth inhibition call": "inactive"
  },
  {
    "molecule": "CO[C@@]1(NC(=O)[C@@H](C(=O)O)c2ccc(O)cc2)C(=O)N2C(C(=O)O)=C(CSc3nnnn3C)CO[C@@H]21",
    "growth inhibition call": "inactive"
  },
  {
    "molecule": "CO[C@@]1(NC(=O)CSC[C@@H](N)C(=O)O)C(=O)N2C(C(=O)O)=C(CSc3nnnn3C)CS[C@@H]21",
    "growth inhibition call": "inactive"
  }
]
